Taken from ChEMBL document CHEMBL4004874.

# STUDY_TARGET: Vitamin K epoxide reductase complex subunit 1 (Rattus norvegicus)
# Sequence (Q6TEK4 whole entry): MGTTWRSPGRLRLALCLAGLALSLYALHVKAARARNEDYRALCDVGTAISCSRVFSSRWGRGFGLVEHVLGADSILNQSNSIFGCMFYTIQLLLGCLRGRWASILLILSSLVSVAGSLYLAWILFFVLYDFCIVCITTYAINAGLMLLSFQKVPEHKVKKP
# ASSAY_PROTOCOL: Inhibition of VKORC1 in rat liver microsomes in presence of 0.003 to 0.2 mM vitamin K
Each record here notes measured Ki.
Give your result in nM as a bare value.

Sample records with Ki:
| COMPOUND | UNIT_LABEL | Ki |
| --- | --- | --- |
| CCCCCCCCCCCC(c1ccc(OC)cc1)c1c(O)c2ccccc2oc1=O (stereo not given) | nM | 100 |
| CCC(c1ccccc1)c1c(O)c2ccccc2oc1=O (stereo not given) [PHENPROCOUMON] | nM | 200 |
| CC(C)CCCC(C)CCCC(C)CCCC(C)CC(c1ccccc1)c1c(O)c2ccccc2oc1=O (stereo not given) | nM | 200 |
| CCCCCCCCCCCc1c(O)c2ccccc2oc1=O | nM | 60 |

Okay, now this compound:
Challenge: Which Ki is reported with Vitamin K epoxide reductase complex subunit 1 (Rattus norvegicus) for this entry: CCCCCCCCCCc1c(O)c2ccccc2oc1=O ?
Response given: 90
